Assay: folding enthalpy; higher = less favourable; fluorescence melt of hairpins on a sequencing array, two-state fit
Settings: sodium 0.088 M
Using folding enthalpy as the sorting value, the categories are low bin (below -40 kcal/mol), mid bin (-40 kcal/mol to below -20 kcal/mol), high bin (-20 kcal/mol or more)

- SEQUENCE_RECORD: "GAAGAGGGAAACCTCCTC ((.((((....)))).))"
  ASSIGNED_CLASS: "high bin"
- SEQUENCE_RECORD: "CGCCGGCGGAAACGCGCG (((..(((....))))))"
  ASSIGNED_CLASS: "mid bin"
- SEQUENCE_RECORD: "GATCTGGCGGCAGATC ((((((....))))))"
  ASSIGNED_CLASS: "low bin"
- SEQUENCE_RECORD: "GACTACGAAAGTACAGTC ((((((....)))..)))"
  ASSIGNED_CLASS: "high bin"

Q) Hey, which category is GGCGAGCGAAAGCTAGCC (((.(((....))).))) in, do you know?
A) low bin

Q) Same lookup for CGGGCGGAAACGCCTCCG ((((((....)))..))) , please.
A) high bin

Q) Same lookup for CATGAGAAATCATG (((((....))))) , please.
A) high bin

Q) Same lookup for GCTAGTCGAAAGACGAGC (((.(((....))).))) , please.
A) mid bin

Q) Same lookup for GCGTACCGAAAGGTTCGC (((.(((....))).))) , please.
A) low bin

Q) Same lookup for GACCGAACGAAAGTTGTC (((..(((....)))))) , please.
A) high bin

Q) Same lookup for GTGATTGGAAACGATCAC (((((.(....).))))) , please.
A) low bin

Q) Same lookup for GAAGGAGAAATCCTTC ((((((....)))))) , please.
A) mid bin

Q) Same lookup for GTAACCGAAAGGTGATAC ((((((....)))..))) , please.
A) high bin

Q) Same lookup for GCTCGCACGAAAGTGAGC (((..(((....)))))) , please.
A) mid bin

Q) Same lookup for GCGCGGCGAAAGCGGAGC ((.(.((....)).).)) , please.
A) mid bin

Q) Same lookup for TGTCCGAAAGGACA (((((....))))) , please.
A) high bin

Q) Same lookup for GATCTCCAGGAGATC ((((((...)))))) , please.
A) mid bin

Q) Same lookup for GATCCGGGAAACTGGATC (((((.(....).))))) , please.
A) low bin

Q) Same lookup for GTACCCGGAAACGGATAC (((.(((....))).))) , please.
A) mid bin

Q) Same lookup for GCTGGCGAAAGCCTAAGC ((((((....)))..))) , please.
A) high bin

Q) Same lookup for GCGGCCGAAAGGCAACGC ((((((....)))..))) , please.
A) high bin

###

Assay: melting temperature; fluorescence melt of hairpins on a sequencing array, two-state fit, raised by 9.35 °C to match UV melts
Settings: sodium 0.088 M
MEASUREMENT_TYPE: Tm (°C)
Write down the numeric answer in °C and omit the unit.

- SEQUENCE_RECORD: "GCCTACGGAAACGTAAGC ((.((((....)))).))"
  Tm (°C): 36.1
- SEQUENCE_RECORD: "GTGTGTCGAAAGACGCAC (((.(((....))).)))"
  Tm (°C): 61.4

Next sequence, please.
Q) Tm for GCGGCATCCGC ((((...)))) ?
A) 54.8

###

Assay: melting temperature; fluorescence melt of hairpins on a sequencing array, two-state fit, raised by 9.35 °C to match UV melts
Conditions: sodium 0.088 M
Using Tm as the sorting value, the categories are low-valued (below 40 °C), mid-valued (40 °C to below 50 °C), high-valued (50 °C or more)

- SEQUENCE_RECORD: "GGCTTCGAAAGAACGGCC ((((((....)))..)))"
  ASSIGNED_CLASS: "mid-valued"
- SEQUENCE_RECORD: "GCGCGTGGAAACATGCGC ((((.((....)).))))"
  ASSIGNED_CLASS: "high-valued"
- SEQUENCE_RECORD: "GTTCCAGGAAACCGGAAC (((((.(....).)))))"
  ASSIGNED_CLASS: "mid-valued"
- SEQUENCE_RECORD: "GCCCAGCGAAAGCTGGC (((.(((....))))))"
  ASSIGNED_CLASS: "high-valued"
- SEQUENCE_RECORD: "GTTGTGGGAAACTACAAC (((((.(....).)))))"
  ASSIGNED_CLASS: "mid-valued"

Q) Hey, which category is GATCACGGGCGTGATC ((((((....)))))) in, do you know?
A) high-valued

Q) Same lookup for GCCCACGAAAGTGAGGC ((((((....))).))) , please.
A) high-valued

Q) Same lookup for GATCTAGGACTAGATC ((((((....)))))) , please.
A) mid-valued

###

Listing: Tm of selected sequences
Assay: melting temperature; fluorescence melt of hairpins on a sequencing array, two-state fit, raised by 9.35 °C to match UV melts
Settings: sodium 0.088 M
Write down the numeric answer in °C and omit the unit.

// below: answered sequences
- SEQUENCE_RECORD: "GGAATAGAAATATTCC ((((((....))))))"
  Tm [°C]: 41.7
- SEQUENCE_RECORD: "GCCCTGCGAAAGCTCGGC (((..((....))..)))"
  Tm [°C]: 46.9
- SEQUENCE_RECORD: "GTCAACGAAAGTTGGGAC ((((((....)))..)))"
  Tm [°C]: 32.7
- SEQUENCE_RECORD: "GGACAGACGAAAGTCTCC (((..(((....))))))"
  Tm [°C]: 30.4
- SEQUENCE_RECORD: "GCTAGGCGAAAGCAAAGC (((..((....))..)))"
  Tm [°C]: 44.3
- SEQUENCE_RECORD: "GCAGGGCGAAAGCCAGGC ((..(((....)))..))"
  Tm [°C]: 60.1

Q) Tm for GCATAAGAAATTATGC ((((((....)))))) ?
A) 46.3

Q) Same lookup for GAACAAGGAAACTTGCTC ((.((((....)))).)) , please.
A) 29.4

Q) Same lookup for GGGATTCGAAAGAAACCC (((.(((....))).))) , please.
A) 50.6

Q) Same lookup for GTTATAGGAAACTATAAC (((((((....))))))) , please.
A) 45.4

Q) Same lookup for GCTAAGGGAAACTTTGGC ((.((.(....).)).)) , please.
A) 27.9

###

Assay: folding enthalpy; higher = less favourable; fluorescence melt of hairpins on a sequencing array, two-state fit
Conditions: sodium 0.088 M
Respond with 1.0 for folding enthalpy values of -30 kcal/mol and above, 0.0 for values below.

# count of solved cases: 2
- SEQUENCE_RECORD: "GCGGCCAACCGC ((((....))))"
  ASSIGNED_CLASS: 1.0
- SEQUENCE_RECORD: "GCGTGCATACGC ((((....))))"
  ASSIGNED_CLASS: 1.0

Q) Please check the record GACTTCGCGAAAGCGGTC (((..(((....)))))) and state if its folding enthalpy is at or above -30 kcal/mol.
A) 1.0

Q) Same lookup for GTCCTCGGAAACAAGGAC (((((.(....).))))) , please.
A) 1.0

Q) Same lookup for GATCGAGTTATCGATC ((((((....)))))) , please.
A) 0.0

Q) Same lookup for GCCTTACCGAAAGGTGGC (((..(((....)))))) , please.
A) 1.0

Q) Same lookup for GAGCTCCGAAAGGATCTC (((.(((....))).))) , please.
A) 1.0

Q) Same lookup for GCTCTGGGAAACCAAAGC (((.(((....))).))) , please.
A) 1.0

Q) Same lookup for GAAATCGGAAACGATTTC (((((((....))))))) , please.
A) 0.0

Q) Same lookup for GATCCTATGAAGGATC ((((((....)))))) , please.
A) 0.0

Q) Same lookup for GTTTACCGAAAGGTCAAC (((.(((....))).))) , please.
A) 1.0

Q) Same lookup for GGTACGGGAAACCGCACC (((.(((....))).))) , please.
A) 1.0

Q) Same lookup for GTATTAGGAAACTAATAC (((((((....))))))) , please.
A) 0.0

Q) Same lookup for GCGGACTCCCGC ((((....)))) , please.
A) 0.0

Q) Same lookup for GCAGTCGAAAGACGATGC ((((((....)))..))) , please.
A) 1.0

Q) Same lookup for GCAATAGGAAACTGTTGC ((((.((....)).)))) , please.
A) 0.0

Q) Same lookup for GGCCCAGGAAACTGAGCC (((.(((....))).))) , please.
A) 0.0

Q) Same lookup for GCTCTGACGAAAGTCAGC (((..(((....)))))) , please.
A) 1.0

Q) Same lookup for GATCCATTCTGGATC ((((((...)))))) , please.
A) 0.0

Q) Same lookup for GCTGCGCGAAAGCCTAGC (((..((....))..))) , please.
A) 1.0

Q) Same lookup for GCGAGCATCGC ((((...)))) , please.
A) 1.0

Q) Same lookup for GCTATCGAAAGATCAGC ((((((....))).))) , please.
A) 1.0
